The binders listed here are annotated with their % Block at 8 nM.
# test-system: T1, CTLA-4-hFc (immunogen A; hFc-labeled CTLA-4 extracellular domain protein) (human, UniProt P16410 36-161)
# T1 construct: range 36-161; Made in HEK293 cells, purified on protein A; also called CLTA-4-hFc; CTLA-4 protein; not shown: human IgG Fc fragment (hFc) of the pCpC vector
# T1 sequence (looked up): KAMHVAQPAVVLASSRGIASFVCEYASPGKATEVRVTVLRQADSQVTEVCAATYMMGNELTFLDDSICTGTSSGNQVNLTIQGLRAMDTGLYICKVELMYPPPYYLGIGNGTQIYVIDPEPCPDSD
# assay-overview: blocking assay, CTLA-4 protein, competitor B7.1
Just the number in %, nothing appended.

Before answering, review these 3 worked examples.
// field: % Block at 8 nM; key: 40C4C6 fully human CTLA-4 antibody (human IgG1, kappa) (antibody, V domains shown, also called mAb09; mAb009) VH: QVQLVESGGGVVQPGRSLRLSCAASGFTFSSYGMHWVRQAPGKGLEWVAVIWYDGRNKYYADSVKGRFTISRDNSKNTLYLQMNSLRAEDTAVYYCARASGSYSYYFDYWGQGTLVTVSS VL: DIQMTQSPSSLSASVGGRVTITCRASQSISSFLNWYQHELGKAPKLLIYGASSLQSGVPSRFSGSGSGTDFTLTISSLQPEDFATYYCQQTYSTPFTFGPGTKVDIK ; value = 99.2

// field: % Block at 8 nM; key: 92C8B6 fully human CTLA-4 antibody (human IgG1, kappa) (antibody, V domains shown, also called mAb42; mAb042) VH: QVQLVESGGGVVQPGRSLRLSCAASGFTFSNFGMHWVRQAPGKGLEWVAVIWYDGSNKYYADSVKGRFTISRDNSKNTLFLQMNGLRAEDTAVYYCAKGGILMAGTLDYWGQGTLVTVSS VL: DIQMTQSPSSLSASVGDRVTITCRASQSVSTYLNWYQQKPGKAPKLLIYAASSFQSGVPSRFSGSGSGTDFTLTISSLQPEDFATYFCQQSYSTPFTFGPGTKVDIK ; value = 98.1

// field: % Block at 8 nM; key: 97A8D1 fully human CTLA-4 antibody (human IgG1, kappa) (antibody, V domains shown, also called mAb49; mAb049) VH: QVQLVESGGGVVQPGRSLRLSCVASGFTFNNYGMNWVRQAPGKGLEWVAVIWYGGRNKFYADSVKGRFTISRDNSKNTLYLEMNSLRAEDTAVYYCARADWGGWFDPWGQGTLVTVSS VL: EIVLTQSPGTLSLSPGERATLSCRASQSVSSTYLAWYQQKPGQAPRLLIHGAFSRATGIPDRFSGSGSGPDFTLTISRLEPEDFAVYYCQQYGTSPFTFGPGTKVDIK ; value = 95.2

Moving on to another binder below.
// field: % Block at 8 nM; key: 31C12F3 fully human CTLA-4 antibody (human IgG1, kappa) (antibody, V domains shown, also called mAb010) VH: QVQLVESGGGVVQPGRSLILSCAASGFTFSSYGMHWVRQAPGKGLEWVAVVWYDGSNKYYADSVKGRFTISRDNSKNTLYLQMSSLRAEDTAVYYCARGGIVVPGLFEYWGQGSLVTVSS VL: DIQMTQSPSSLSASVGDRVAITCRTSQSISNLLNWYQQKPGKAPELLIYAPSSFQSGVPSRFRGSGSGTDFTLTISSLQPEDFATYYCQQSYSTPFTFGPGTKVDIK ; value = 98.5

All values here come from patent US20210324080A1.
